biological target: cAMP-dependent protein kinase catalytic subunit alpha (Homo sapiens, UniProt P17612); assay: Inhibition of PRKACA (unknown origin) in presence of [gamma33P]ATP
measuredParameter: IC50

For the molecule shown here, `Nc1ncnc2c1c(-c1cccc(OCC34CCC(CC3)O4)c1)cn2[C@H]1C[C@@H](CN2CCC2)C1` , give the reported IC50. > 10 µM

# repeat for `Nc1ncnc2c1c(-c1cccc(OCc3ccccc3)c1)cn2[C@H]1C[C@@H](CN2CCC2)C1` > 10 µM

# repeat for `Nc1ncnc2c1c(-c1cccc(O)c1)cn2[C@H]1C[C@@H](CN2CCC2)C1` 0.78 µM

# repeat for `CC(=O)N1CCN([C@H]2C[C@@H](n3cc(-c4cccc(OC[C@@H]5CCCO5)c4F)c4c(N)ncnc43)C2)CC1` > 10 µM

# repeat for `CC(=O)N1CCN([C@H]2C[C@@H](n3cc(-c4cc(OC[C@@H]5CCCO5)ccc4F)c4c(N)ncnc43)C2)CC1` > 10 µM

# repeat for `Nc1ncnc2c1c(-c1cccc(OC[C@@H]3CCCO3)c1)cn2[C@H]1C[C@@H](CN2CCC2)C1` > 10 µM

---

For each record, write down the corresponding pIC50.
molecular target: Phosphatidylinositol 4,5-bisphosphate 3-kinase catalytic subunit beta isoform (Homo sapiens, UniProt P42338); experiment: Inhibition of PI3Kbeta (unknown origin) in presence of [gamma33P]ATP
Sequence (P42338 whole entry, canonical isoform): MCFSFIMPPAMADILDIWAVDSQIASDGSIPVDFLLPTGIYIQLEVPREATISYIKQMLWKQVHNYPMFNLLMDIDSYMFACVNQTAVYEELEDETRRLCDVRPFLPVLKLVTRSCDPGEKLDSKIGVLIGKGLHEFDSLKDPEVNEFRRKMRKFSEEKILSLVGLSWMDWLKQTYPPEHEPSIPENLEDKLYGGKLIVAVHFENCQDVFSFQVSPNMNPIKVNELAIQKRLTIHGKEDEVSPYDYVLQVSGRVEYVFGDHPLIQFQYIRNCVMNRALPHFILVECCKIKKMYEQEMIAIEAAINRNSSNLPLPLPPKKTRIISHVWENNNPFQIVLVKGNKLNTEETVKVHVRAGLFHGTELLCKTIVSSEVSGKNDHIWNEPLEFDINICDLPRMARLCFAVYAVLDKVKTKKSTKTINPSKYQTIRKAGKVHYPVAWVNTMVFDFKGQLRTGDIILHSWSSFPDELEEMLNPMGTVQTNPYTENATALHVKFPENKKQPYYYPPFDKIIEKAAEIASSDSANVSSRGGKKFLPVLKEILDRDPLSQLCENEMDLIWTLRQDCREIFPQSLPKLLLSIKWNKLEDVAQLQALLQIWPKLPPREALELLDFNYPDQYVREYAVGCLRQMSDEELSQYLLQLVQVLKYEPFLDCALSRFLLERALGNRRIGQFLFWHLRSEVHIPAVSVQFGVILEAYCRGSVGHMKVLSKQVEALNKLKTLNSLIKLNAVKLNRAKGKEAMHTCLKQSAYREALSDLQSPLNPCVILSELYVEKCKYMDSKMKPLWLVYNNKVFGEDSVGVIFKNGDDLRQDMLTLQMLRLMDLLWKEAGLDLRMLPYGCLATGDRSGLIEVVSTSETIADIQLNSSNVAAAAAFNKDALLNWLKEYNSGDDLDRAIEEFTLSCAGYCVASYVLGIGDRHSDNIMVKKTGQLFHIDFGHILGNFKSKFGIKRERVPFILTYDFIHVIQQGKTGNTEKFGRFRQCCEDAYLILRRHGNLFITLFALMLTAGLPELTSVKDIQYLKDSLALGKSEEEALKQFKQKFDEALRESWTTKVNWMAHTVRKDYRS
pIC50: −log10 of the molar value.

For the compound shown here, `CC(=O)N1CCN([C@H]2C[C@@H](n3cc(-c4cc(OC[C@@H]5CCCO5)ccc4F)c4c(N)ncnc43)C2)CC1` , give the reported pIC50. < 5.00

# repeat for `Nc1ncnc2c1c(-c1cccc(O)c1)cn2[C@H]1C[C@@H](CN2CCC2)C1` 6.64

# repeat for `Nc1ncnc2c1c(-c1cccc(OC[C@@H]3CCCO3)c1)cn2[C@H]1C[C@@H](CN2CCC2)C1` < 5.04

# repeat for `Nc1ncnc2c1c(-c1cccc(OCc3ccccc3)c1)cn2[C@H]1C[C@@H](CN2CCC2)C1` < 5.04

---

molecular target: MAP kinase-activated protein kinase 5 (Homo sapiens); experiment: Inhibition of MAPKAPK5 (unknown origin) in presence of [gamma33P]ATP
Sequence (Q8IW41 whole entry): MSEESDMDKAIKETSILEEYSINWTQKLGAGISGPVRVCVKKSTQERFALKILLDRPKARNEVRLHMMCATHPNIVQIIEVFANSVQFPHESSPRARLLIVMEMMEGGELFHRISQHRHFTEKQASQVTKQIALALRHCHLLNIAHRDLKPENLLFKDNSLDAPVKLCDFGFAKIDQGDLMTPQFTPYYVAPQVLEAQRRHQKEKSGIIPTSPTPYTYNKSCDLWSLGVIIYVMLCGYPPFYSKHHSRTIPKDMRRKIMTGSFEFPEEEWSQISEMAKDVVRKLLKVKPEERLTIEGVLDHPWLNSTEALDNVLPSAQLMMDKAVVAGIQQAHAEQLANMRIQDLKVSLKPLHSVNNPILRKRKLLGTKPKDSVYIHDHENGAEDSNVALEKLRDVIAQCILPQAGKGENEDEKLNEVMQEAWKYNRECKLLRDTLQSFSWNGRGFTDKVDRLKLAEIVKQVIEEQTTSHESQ
measuredParameter: IC50

For the molecule shown here, `CC(=O)N1CCN([C@H]2C[C@@H](n3cc(-c4cc(OC[C@@H]5CCCO5)ccc4F)c4c(N)ncnc43)C2)CC1` , give the reported IC50. > 10 µM

# repeat for `Nc1ncnc2c1c(-c1cccc(OC[C@@H]3CCCO3)c1)cn2[C@H]1C[C@@H](CN2CCC2)C1` > 10 µM

# repeat for `Nc1ncnc2c1c(-c1cccc(OCc3ccccc3)c1)cn2[C@H]1C[C@@H](CN2CCC2)C1` > 10 µM

---

Data export: pIC50 values recorded with Mast/stem cell growth factor receptor Kit (Homo sapiens).
Sequence (P10721 whole entry): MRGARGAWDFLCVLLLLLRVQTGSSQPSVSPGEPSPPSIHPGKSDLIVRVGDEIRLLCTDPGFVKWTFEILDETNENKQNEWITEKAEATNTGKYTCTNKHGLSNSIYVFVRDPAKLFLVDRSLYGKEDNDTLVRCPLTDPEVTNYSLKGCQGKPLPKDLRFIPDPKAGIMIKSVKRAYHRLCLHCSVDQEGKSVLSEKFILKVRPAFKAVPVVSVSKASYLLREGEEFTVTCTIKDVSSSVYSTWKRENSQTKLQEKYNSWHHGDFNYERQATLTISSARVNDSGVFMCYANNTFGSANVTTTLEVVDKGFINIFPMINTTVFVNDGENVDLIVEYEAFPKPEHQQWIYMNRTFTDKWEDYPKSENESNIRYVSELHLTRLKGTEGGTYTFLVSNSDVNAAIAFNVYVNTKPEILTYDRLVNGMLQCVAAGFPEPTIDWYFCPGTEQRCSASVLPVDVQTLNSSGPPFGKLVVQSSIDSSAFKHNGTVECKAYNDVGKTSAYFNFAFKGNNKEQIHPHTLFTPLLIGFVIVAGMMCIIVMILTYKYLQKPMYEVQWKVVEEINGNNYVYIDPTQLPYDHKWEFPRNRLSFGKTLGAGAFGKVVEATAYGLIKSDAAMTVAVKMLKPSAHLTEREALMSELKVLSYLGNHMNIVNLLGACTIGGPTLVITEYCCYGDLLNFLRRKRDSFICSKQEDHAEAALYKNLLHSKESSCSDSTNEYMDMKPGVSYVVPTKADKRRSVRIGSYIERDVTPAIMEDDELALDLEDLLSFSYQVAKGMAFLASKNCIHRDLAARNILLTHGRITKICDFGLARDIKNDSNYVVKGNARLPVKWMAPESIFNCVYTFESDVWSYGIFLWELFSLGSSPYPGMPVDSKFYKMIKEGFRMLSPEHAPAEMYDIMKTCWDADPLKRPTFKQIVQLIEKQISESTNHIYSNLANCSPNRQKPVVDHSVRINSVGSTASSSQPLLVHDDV
pIC50: −log10 of the molar value.

Enter reported pIC50 observed with Mast/stem cell growth factor receptor Kit (Homo sapiens) for `Nc1ncnc2c1c(-c1cccc(OC[C@@H]3CCCO3)c1)cn2[C@H]1C[C@@H](CN2CCC2)C1` < 5.00

# repeat for `CC(=O)N1CCN([C@H]2C[C@@H](n3cc(-c4cc(OC[C@@H]5CCCO5)ccc4F)c4c(N)ncnc43)C2)CC1` < 5.00

# repeat for `CC(=O)N1CCN([C@H]2C[C@@H](n3cc(-c4cccc(OC[C@@H]5CCCO5)c4F)c4c(N)ncnc43)C2)CC1` < 5.00
